Entries and their pIC50 values follow.
Target: pSTAT3 (pY705-STAT3) (Homo sapiens)
Construct: host or cells: cryopreserved PBMC
Assay: MSD-pSTAT-PBMC Assay (pSTAT3, IL-6 stimulated)
Format: cell-based
Conditions: PBMC, compound 3 hrs, then 10 ng/mL IL-6 for 10 min; MSD pY705-STAT3; read-out: pSTAT3
pIC50: −log10 of the molar value.

{"columns": ["MOLECULE", "pIC50"],
 "data": [
  ["CC(C)OC(=O)[C@H](Cc1ccccc1)NP(=O)(Oc1ccccc1)C(F)(F)c1ccc2sc(C(=O)N[C@H]3C[C@@H]4C[C@@H]4C[C@H]4CC[C@@H](C(=O)N5CC(C(=O)N6CCOCC6)C5)N4C3=O)cc2c1 (stereo partly drawn) [Compound 165]", "5.52 to 6.00"],
  ["COC1(c2nccn2C)CN(C(=O)[C@@H]2CC[C@@H]3C[C@@H]4C[C@@H]4C[C@H](NC(=O)c4cc5cc(C(F)(F)P(=O)(OCCSC(=O)C(C)(C)C)OCCSC(=O)C(C)(C)C)ccc5s4)C(=O)N32)C1 [Compound 202]", "> 7.00"],
  ["CC(C)OC(=O)OCOP(=O)(OCOC(=O)OC(C)C)[C@@H](F)c1ccc2sc(C(=O)N[C@H]3C[C@H]4C[C@H]4C[C@H]4CC[C@@H](C(=O)N5CC(c6cccnc6)C5)N4C3=O)cc2c1 [Compound 152]", "> 7.00"],
  ["CCCCC(=O)OCOP(=O)(OCOC(=O)CCCC)C(F)(F)c1ccc2sc(C(=O)N[C@H]3C[C@@H]4C[C@@H]4C[C@H]4CC[C@@H](C(=O)N5CC(C(=O)N6CCOCC6)C5)N4C3=O)cc2c1 [Example 4]", "> 7.00"],
  ["CC(C)(CO)C(=O)SCCOP(=O)(Cc1ccc2sc(C(=O)N[C@H]3C[C@@H]4C[C@@H]4C[C@H]4CC[C@@H](C(=O)N5CC(C(=O)N6CCOCC6)C5)N4C3=O)cc2c1)OCCSC(=O)C(C)(C)CO [Compound 133]", "< 5.52"],
  ["CCCOC(=O)[C@H](C)NP(=O)(Oc1ccccc1)C(F)c1ccc2sc(C(=O)N[C@H]3C[C@@H]4C[C@@H]4C[C@H]4CC[C@@H](C(=O)N5CC(c6ncc(C)o6)C5)N4C3=O)cc2c1 (stereo partly drawn) [Compound 325]", "6.00 to 7.00"],
  ["CC(C)(C)C(=O)OCOP(=O)(OCOC(=O)C(C)(C)C)C(F)(F)c1ccc2sc(C(=O)N[C@H]3C[C@H]4C[C@H]4C[C@H]4CC[C@@H](C(=O)N5CC(c6ccccn6)C5)N4C3=O)cc2c1 [Compound 209]", "> 7.00"],
  ["CC(C)OC(=O)[C@H](C)NP(=O)(Cc1ccc2sc(C(=O)N[C@H]3C[C@@H]4C[C@@H]4C[C@H]4CC[C@@H](C(=O)N5CC(C(=O)N6CCOCC6)C5)N4C3=O)cc2c1)N[C@@H](C)C(=O)OC(C)C [Compound 147]", "< 5.52"],
  ["CCCOC(=O)[C@H](C)NP(=O)(Oc1ccccc1)C(F)c1ccc2sc(C(=O)N[C@H]3C[C@@H]4C[C@@H]4C[C@H]4CC[C@@H](C(=O)N5CC(c6nncn6C)C5)N4C3=O)cc2c1 (stereo partly drawn) [Compound 309]", "< 5.52"],
  ["CC(C)(C)C(=O)OCOP(=O)(OCOC(=O)C(C)(C)C)C(F)(F)c1ccc2sc(C(=O)N[C@H]3C[C@@H]4C[C@@H]4C[C@H]4CC[C@@H](C(=O)N5CC(C6CCOCC6)C5)N4C3=O)cc2c1 [Compound 205]", "> 7.00"],
  ["CC(C)OC(=O)[C@H](C)NP(=O)(Cc1ccc2sc(C(=O)N[C@H]3C[C@@H]4C[C@@H]4C[C@H]4CC[C@@H](C(=O)N5CC(C(=O)N6CCOCC6)C5)N4C3=O)cc2c1)Oc1ccccc1Cl (stereo partly drawn) [Compound 191]", "6.00 to 7.00"],
  ["CCCOC(=O)C(C)NP(=O)(Oc1ccccc1)C(F)c1ccc2sc(C(=O)N[C@H]3C[C@@H]4C[C@@H]4C[C@H]4CC[C@@H](C(=O)N5C[C@@H]6[C@H]5CCN6c5cccnc5)N4C3=O)cc2c1 (stereo in doubt) [Compound 298]", "> 7.00"],
  ["CC(C)CC(=O)SCCOP(=O)(OCCSC(=O)CC(C)C)C(F)(F)c1ccc2sc(C(=O)N[C@H]3C[C@H]4C[C@H]4C[C@H]4CC[C@@H](C(=O)N5CC(n6ccnc6)C5)N4C3=O)cc2c1 [Compound 179]", "> 7.00"],
  ["CCCOC(=O)[C@H](C)NP(=O)(Oc1ccccc1)C(F)c1ccc2sc(C(=O)N[C@H]3C[C@@H]4C[C@@H]4C[C@H]4CC[C@@H](C(=O)N5CC(c6cc(C)no6)C5)N4C3=O)cc2c1 (stereo partly drawn) [Compound 361]", "> 7.00"],
  ["CC(C)(C)C(=O)SCCOP(=O)(OCCSC(=O)C(C)(C)C)C(F)(F)c1ccc2sc(C(=O)N[C@H]3C[C@@H]4C[C@@H]4C[C@H]4CC[C@@H](C(=O)N5CC(c6cnccc6F)C5)N4C3=O)cc2c1 [Compound 308]", "> 7.00"],
  ["CC(C)OC(=O)OCOP(=O)(Cc1ccc2sc(C(=O)N[C@H]3C[C@H]4C[C@H]4C[C@H]4CC[C@@H](C(=O)N[C@@H]5CCN(c6cccnc6)C5)N4C3=O)cc2c1)OCOC(=O)OC(C)C [Compound 226]", "> 7.00"],
  ["CC(C)(C)C(=O)OCOP(=O)(OCOC(=O)C(C)(C)C)C(F)(F)c1ccc2sc(C(=O)N[C@H]3C[C@@H]4C[C@@H]4C[C@H]4CC[C@@H](C(=O)N5CC(N6CCOCC6)C5)N4C3=O)cc2c1 [Compound 204]", "> 7.00"],
  ["Cn1cnnc1C1CN(C(=O)[C@@H]2CC[C@@H]3C[C@@H]4C[C@@H]4C[C@H](NC(=O)c4cc5cc(C(F)(F)P(=O)(OCCSC(=O)C(C)(C)C)OCCSC(=O)C(C)(C)C)ccc5s4)C(=O)N32)C1 [Compound 201]", "> 7.00"]
]}

* * *

Target: pSTAT3 (pY705-STAT3) (Homo sapiens, UniProt P40763)
Construct: host or cells: cryopreserved PBMC
Sequence (P40763 whole entry): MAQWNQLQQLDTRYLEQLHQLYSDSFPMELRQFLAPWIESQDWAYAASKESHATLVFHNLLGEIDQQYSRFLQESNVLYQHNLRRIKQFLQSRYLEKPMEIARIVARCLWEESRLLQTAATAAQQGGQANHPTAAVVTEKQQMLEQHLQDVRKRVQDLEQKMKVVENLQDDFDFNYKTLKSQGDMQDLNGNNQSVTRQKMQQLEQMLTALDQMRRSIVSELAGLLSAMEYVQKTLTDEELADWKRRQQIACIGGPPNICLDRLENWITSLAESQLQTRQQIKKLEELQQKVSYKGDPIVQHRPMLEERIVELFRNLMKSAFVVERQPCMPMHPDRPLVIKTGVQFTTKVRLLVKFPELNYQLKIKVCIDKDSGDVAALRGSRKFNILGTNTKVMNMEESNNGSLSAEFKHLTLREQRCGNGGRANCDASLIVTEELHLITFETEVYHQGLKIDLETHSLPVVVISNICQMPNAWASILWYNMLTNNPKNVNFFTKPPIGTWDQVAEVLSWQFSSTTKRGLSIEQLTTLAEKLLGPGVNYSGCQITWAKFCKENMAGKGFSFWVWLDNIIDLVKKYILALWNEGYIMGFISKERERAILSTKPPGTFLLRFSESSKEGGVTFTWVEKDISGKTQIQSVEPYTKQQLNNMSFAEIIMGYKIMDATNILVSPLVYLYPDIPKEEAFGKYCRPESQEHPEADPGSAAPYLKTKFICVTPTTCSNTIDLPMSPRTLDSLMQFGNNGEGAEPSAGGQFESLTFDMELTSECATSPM
Assay: MSD-pSTAT-PBMC Assay (pSTAT3, IL-6 stimulated)
Assay type: cell-based
Conditions: PBMC, compound 3 hrs, then 10 ng/mL IL-6 for 10 min; MSD pY705-STAT3; read-out: pSTAT3
Recorded IC50, one value per entry.
PROPERTY_LABEL: IC50

{"columns": ["COMPOUND", "EXPERIMENTAL_VALUE"],
 "data": [
  ["COCC(C)(C)OC(=O)OCOP(=O)(OCOC(=O)OC(C)(C)COC)C(F)(F)c1ccc2sc(C(=O)N[C@H]3C[C@@H]4C[C@@H]4C[C@H]4CC[C@@H](C(=O)N5CC(C(=O)N6CCOCC6)C5)N4C3=O)cc2c1 [Compound 161]", "< 100 nM"],
  ["CC(C)CC(=O)SCCOP(=O)(OCCSC(=O)CC(C)C)C(F)(F)c1ccc2sc(C(=O)N[C@H]3C[C@@H]4C[C@@H]4C[C@H]4CC[C@@H](C(=O)N5CC(c6ncccn6)C5)N4C3=O)cc2c1 [Compound 229]", "< 100 nM"],
  ["CC(C)(C)C(=O)SCCOP(=O)(OCCSC(=O)C(C)(C)C)C(F)(F)c1ccc2sc(C(=O)NC3CC4CC4CC4CCC(C(=O)N5CC(n6ccnc6)C5)N4C3=O)cc2c1 (stereo not drawn) [Compound 180]", "< 100 nM"],
  ["CCCOC(=O)[C@H](C)NP(=O)(Oc1ccccc1)C(F)c1ccc2sc(C(=O)N[C@H]3C[C@@H]4C[C@@H]4C[C@H]4CC[C@@H](C(=O)N5CC(c6cc(OC)no6)C5)N4C3=O)cc2c1 (stereo partly drawn) [Compound 362]", "< 100 nM"],
  ["COCCCOC(=O)OCOP(=O)(OCOC(=O)OCCCOC)C(F)(F)c1ccc2sc(C(=O)N[C@H]3C[C@@H]4C[C@@H]4C[C@H]4CC[C@@H](C(=O)N5CC(C(=O)N6CCOCC6)C5)N4C3=O)cc2c1 [Compound 169]", "100 to 1000 nM"],
  ["CC(C)(C)C(=O)SCCOP(=O)(OCCSC(=O)C(C)(C)C)C(F)(F)c1ccc2sc(C(=O)N[C@H]3C[C@H]4C[C@H]4C[C@H]4CC[C@@H](C(=O)N5CCN(C6CCOCC6)CC5)N4C3=O)cc2c1 [Compound 220]", "< 100 nM"],
  ["CC(C)(C)C(=O)OCOP(=O)(OCOC(=O)C(C)(C)C)C(F)(F)c1ccc2sc(C(=O)N[C@H]3C[C@H]4C[C@H]4C[C@H]4CC[C@@H](C(=O)N[C@@H]5CCN(c6cccnc6)C5)N4C3=O)cc2c1 [Compound 213]", "100 to 1000 nM"],
  ["CC(C)OC(=O)[C@H](C)NP(=O)(Cc1ccc2sc(C(=O)N[C@H]3C[C@@H]4C[C@@H]4C[C@H]4CC[C@@H](C(=O)N5CC(C(=O)N6CCOCC6)C5)N4C3=O)cc2c1)OCC(F)(F)F (stereo partly drawn) [Compound 200]", "100 to 1000 nM"],
  ["CC(C)(C)C(=O)OCOP(=O)(OCOC(=O)C(C)(C)C)C(F)(F)c1ccc2sc(C(=O)N[C@H]3C[C@@H]4C[C@@H]4C[C@H]4CC[C@@H](C(=O)N5CC(n6ccnc6)C5)N4C3=O)cc2c1 [Compound 207]", "< 100 nM"]
]}
